All values here come from patent US20250368678A1.

assay-remarks: In vitro liver microsomal stability assay, rat
Assay type: in vitro ADME
test-conditions: Rat liver microsomes 0.5 mg/mL, NADPH
Binarize Remaining amount % at 60 min at 10%; below is MET, at or above is NOT MET.

smiles-string	class
C[C@@]1(O)CC[C@H]2[C@H](CC[C@@H]3[C@@H]2CC[C@]2(C)[C@@H](C(=O)Cn4cnn(-c5ccnc(F)c5)c4=O)CC[C@@H]32)C1	NOT MET
COc1ccc(-n2ncn(CC(=O)[C@H]3CC[C@H]4[C@@H]5CC[C@@H]6C[C@](C)(O)CC[C@@H]6[C@H]5CC[C@]34C)c2=O)cn1	MET
C[C@@]1(O)CC[C@H]2[C@H](CC[C@@H]3[C@@H]2CC[C@]2(C)[C@@H](C(=O)Cn4cnn(-c5cccc(F)c5)c4=O)CC[C@@H]32)C1	NOT MET
C[C@@]1(O)CC[C@H]2[C@H](CC[C@@H]3[C@@H]2CC[C@]2(C)[C@@H](C(=O)Cn4cnn(-c5cccnc5)c4=O)CC[C@@H]32)C1	NOT MET
C[C@@]1(O)CC[C@H]2[C@H](CC[C@@H]3[C@@H]2CC[C@]2(C)[C@@H](C(=O)Cn4cnn(-c5cccc(C(N)=O)c5)c4=O)CC[C@@H]32)C1	MET
C[C@@]1(O)CC[C@H]2[C@H](CC[C@@H]3[C@@H]2CC[C@]2(C)[C@@H](C(=O)Cn4cnn(C5CCCC5)c4=O)CC[C@@H]32)C1	NOT MET
C[C@@]1(O)CC[C@H]2[C@H](CC[C@@H]3[C@@H]2CC[C@]2(C)[C@@H](C(=O)Cn4cnn(-c5cc(F)cc(C#N)c5)c4=O)CC[C@@H]32)C1	NOT MET
C[C@@]1(O)CC[C@H]2[C@H](CC[C@@H]3[C@@H]2CC[C@]2(C)[C@@H](C(=O)Cn4ncn(-c5ccc(F)cc5)c4=O)CC[C@@H]32)C1	MET
C[C@@]1(O)CC[C@H]2[C@H](CC[C@@H]3[C@@H]2CC[C@]2(C)[C@@H](C(=O)Cn4cnn(-c5cccc(F)c5F)c4=O)CC[C@@H]32)C1	NOT MET
C[C@@]1(O)CC[C@H]2[C@H](CC[C@@H]3[C@@H]2CC[C@]2(C)[C@@H](C(=O)Cn4cnn(-c5ccc(F)cc5F)c4=O)CC[C@@H]32)C1	NOT MET
Cc1cc(-n2ncn(CC(=O)[C@H]3CC[C@H]4[C@@H]5CC[C@@H]6C[C@](C)(O)CC[C@@H]6[C@H]5CC[C@]34C)c2=O)ccn1	NOT MET
